Tested on: CCRF-CEM
experiment: NCI tumour cell line growth inhibition, 48 h
The source made the active and inactive calls. No stated cut-off is given here; in the data, active = GI50 up to about 1.1 µM and inactive = higher.
Permitted responses: YES for active, NO for inactive

Illustrative cases are given below, each with its answer.
{"molecule": "Cc1cn(C2CC(n3cc(Cn4cc(Br)c(=O)[nH]c4=O)nn3)C(CO)O2)c(=O)[nH]c1=O (stereo not given)", "target-under-test": "CCRF-CEM", "discrete-label": "YES"}
{"molecule": "COC(=O)NC(=O)NC(Cc1ccccc1)NC(=O)OCc1ccccc1 (stereo not given)", "target-under-test": "CCRF-CEM", "discrete-label": "NO"}
{"molecule": "Cn1cnc(/C=C/C#N)c1", "target-under-test": "CCRF-CEM", "discrete-label": "NO"}
{"molecule": "CN1C(=O)C(O)CC1c1ccc(C(F)(F)F)cc1 (stereo not given)", "target-under-test": "CCRF-CEM", "discrete-label": "NO"}
{"molecule": "COc1cccc(NC(=O)CC(=O)N2N=C(C)C(/N=N/c3ccc(S(=O)(=O)CCOS(=O)(=O)O)cc3)C2=O)c1 (stereo not given)", "target-under-test": "CCRF-CEM", "discrete-label": "NO"}
{"molecule": "CC(C)(C)c1cc(C(P(=O)(c2ccccc2)c2ccccc2)P(=O)(c2ccccc2)c2ccccc2)cc(C(C)(C)C)c1O", "target-under-test": "CCRF-CEM", "discrete-label": "NO"}
{"molecule": "CSc1nncc(-c2cc3c(c(SC)n2)CCCC3)n1", "target-under-test": "CCRF-CEM", "discrete-label": "NO"}
{"molecule": "CN(C)C1(N(C)C)Oc2c(c(=O)n(C)c(=O)n2C)C(c2ccc(C(F)(F)F)cc2)C1(F)F (stereo not given)", "target-under-test": "CCRF-CEM", "discrete-label": "NO"}
{"molecule": "Oc1ccc(-c2nc(-c3cccnc3)c(-c3ccc(Cl)cc3)[nH]2)cc1O", "target-under-test": "CCRF-CEM", "discrete-label": "NO"}
{"molecule": "COc1cccc(C2c3cc4c(cc3OC(N3CCOCC3)C2C)OCO4)c1OC (stereo not given)", "target-under-test": "CCRF-CEM", "discrete-label": "NO"}

State the result this test recorded for O=C(Nc1ccc(N2C(=O)CSC2c2ccccc2O)cc1)c1ccc(N2C(=O)CSC2c2ccccc2O)cc1 (stereo not given) .
NO

GET /call?item= COc1cc(/C=C(/C#N)C(N)=O)ccc1O returns the recorded outcome of this test.
NO

Please share the test call associated with COC1=C(OC)C(=O)C(Cc2c(Cl)nc3sc(C)cn23)=C(C)C1=O .
NO

For N#C/C(=C\c1ccc(Cl)cc1)c1nc(-c2cc3ccccc3oc2=O)cs1 , which call appears in the assay record?
NO
